target-or-system: Histone deacetylase 8 (Homo sapiens, UniProt Q9BY41)
Sequence (Q9BY41 whole entry): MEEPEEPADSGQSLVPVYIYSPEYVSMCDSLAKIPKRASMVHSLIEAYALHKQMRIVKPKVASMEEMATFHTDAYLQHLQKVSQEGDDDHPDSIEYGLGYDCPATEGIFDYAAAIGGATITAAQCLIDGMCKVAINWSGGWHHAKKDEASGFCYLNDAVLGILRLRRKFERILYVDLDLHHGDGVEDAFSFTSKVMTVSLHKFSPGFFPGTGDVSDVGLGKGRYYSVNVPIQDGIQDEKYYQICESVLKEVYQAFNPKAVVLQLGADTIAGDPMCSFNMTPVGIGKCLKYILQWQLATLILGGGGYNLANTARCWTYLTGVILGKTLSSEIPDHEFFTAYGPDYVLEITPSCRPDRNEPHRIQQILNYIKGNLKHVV
assay-overview: Inhibition of recombinant HDAC8 (unknown origin) measured after 30 mins by fluorescence assay
readout-label: IC50

Request: For the compound `Cc1cc(-c2ccc(/C=C3\C(=O)N(c4ccc(C(=O)O)cc4)N=C3C3CC3)s2)c(C(F)(F)F)cc1C` , what IC50 is on record?
Response: > 100 µM

---

// IC50 lookup, one value per entry
target-or-system: UniProt:Q09472
assay-overview: Inhibition of p300 (unknown origin) using biotinylated histone H3 (1 to 21 residues) as substrate measured after 90 mins in presence of Acetyl CoA by AlphaLISA assay
Give a bare numeral; the unit nM is implied.

>>> print(df.to_string())
                               given_smiles  readout_label  units_of_measure  numeric_value
0  CC1=NN(c2ccc(C(=O)O)cc2)C(=O)/C1=C\c1ccc(-c2ccccc2[N+](=O)[O-])o1           IC50                nM            560

Request: Quick one: IC50 of `CC1=NN(c2ccc(C(=O)O)cc2)C(=O)/C1=C\c1ccc(-c2ccccc2OC(F)(F)F)o1` ?
Response: 1130

Request: # iterate: `CC1=NN(c2cc(F)c(O)c(F)c2)C(=O)/C1=C\c1ccc(-c2cc(C)c(C)cc2[N+](=O)[O-])o1`
Response: 4800

Request: Also `CC1=NN(c2ccc(C(=O)O)cc2)C(=O)/C1=C\c1ccc(-c2cc(C)c(C)cc2C(F)(F)F)o1` ?
Response: 290

Request: Try this compound next: `CC1=NN(c2ccc(-c3nn[nH]n3)cc2)C(=O)/C1=C\c1ccc(-c2cc(C)c(C)cc2[N+](=O)[O-])o1`
Response: 670

---

Reported IC50 is given for each of the following compounds.
target-or-system: Histone acetyltransferase p300 (Homo sapiens)
Sequence (Q09472 whole entry, the tested form may be a part): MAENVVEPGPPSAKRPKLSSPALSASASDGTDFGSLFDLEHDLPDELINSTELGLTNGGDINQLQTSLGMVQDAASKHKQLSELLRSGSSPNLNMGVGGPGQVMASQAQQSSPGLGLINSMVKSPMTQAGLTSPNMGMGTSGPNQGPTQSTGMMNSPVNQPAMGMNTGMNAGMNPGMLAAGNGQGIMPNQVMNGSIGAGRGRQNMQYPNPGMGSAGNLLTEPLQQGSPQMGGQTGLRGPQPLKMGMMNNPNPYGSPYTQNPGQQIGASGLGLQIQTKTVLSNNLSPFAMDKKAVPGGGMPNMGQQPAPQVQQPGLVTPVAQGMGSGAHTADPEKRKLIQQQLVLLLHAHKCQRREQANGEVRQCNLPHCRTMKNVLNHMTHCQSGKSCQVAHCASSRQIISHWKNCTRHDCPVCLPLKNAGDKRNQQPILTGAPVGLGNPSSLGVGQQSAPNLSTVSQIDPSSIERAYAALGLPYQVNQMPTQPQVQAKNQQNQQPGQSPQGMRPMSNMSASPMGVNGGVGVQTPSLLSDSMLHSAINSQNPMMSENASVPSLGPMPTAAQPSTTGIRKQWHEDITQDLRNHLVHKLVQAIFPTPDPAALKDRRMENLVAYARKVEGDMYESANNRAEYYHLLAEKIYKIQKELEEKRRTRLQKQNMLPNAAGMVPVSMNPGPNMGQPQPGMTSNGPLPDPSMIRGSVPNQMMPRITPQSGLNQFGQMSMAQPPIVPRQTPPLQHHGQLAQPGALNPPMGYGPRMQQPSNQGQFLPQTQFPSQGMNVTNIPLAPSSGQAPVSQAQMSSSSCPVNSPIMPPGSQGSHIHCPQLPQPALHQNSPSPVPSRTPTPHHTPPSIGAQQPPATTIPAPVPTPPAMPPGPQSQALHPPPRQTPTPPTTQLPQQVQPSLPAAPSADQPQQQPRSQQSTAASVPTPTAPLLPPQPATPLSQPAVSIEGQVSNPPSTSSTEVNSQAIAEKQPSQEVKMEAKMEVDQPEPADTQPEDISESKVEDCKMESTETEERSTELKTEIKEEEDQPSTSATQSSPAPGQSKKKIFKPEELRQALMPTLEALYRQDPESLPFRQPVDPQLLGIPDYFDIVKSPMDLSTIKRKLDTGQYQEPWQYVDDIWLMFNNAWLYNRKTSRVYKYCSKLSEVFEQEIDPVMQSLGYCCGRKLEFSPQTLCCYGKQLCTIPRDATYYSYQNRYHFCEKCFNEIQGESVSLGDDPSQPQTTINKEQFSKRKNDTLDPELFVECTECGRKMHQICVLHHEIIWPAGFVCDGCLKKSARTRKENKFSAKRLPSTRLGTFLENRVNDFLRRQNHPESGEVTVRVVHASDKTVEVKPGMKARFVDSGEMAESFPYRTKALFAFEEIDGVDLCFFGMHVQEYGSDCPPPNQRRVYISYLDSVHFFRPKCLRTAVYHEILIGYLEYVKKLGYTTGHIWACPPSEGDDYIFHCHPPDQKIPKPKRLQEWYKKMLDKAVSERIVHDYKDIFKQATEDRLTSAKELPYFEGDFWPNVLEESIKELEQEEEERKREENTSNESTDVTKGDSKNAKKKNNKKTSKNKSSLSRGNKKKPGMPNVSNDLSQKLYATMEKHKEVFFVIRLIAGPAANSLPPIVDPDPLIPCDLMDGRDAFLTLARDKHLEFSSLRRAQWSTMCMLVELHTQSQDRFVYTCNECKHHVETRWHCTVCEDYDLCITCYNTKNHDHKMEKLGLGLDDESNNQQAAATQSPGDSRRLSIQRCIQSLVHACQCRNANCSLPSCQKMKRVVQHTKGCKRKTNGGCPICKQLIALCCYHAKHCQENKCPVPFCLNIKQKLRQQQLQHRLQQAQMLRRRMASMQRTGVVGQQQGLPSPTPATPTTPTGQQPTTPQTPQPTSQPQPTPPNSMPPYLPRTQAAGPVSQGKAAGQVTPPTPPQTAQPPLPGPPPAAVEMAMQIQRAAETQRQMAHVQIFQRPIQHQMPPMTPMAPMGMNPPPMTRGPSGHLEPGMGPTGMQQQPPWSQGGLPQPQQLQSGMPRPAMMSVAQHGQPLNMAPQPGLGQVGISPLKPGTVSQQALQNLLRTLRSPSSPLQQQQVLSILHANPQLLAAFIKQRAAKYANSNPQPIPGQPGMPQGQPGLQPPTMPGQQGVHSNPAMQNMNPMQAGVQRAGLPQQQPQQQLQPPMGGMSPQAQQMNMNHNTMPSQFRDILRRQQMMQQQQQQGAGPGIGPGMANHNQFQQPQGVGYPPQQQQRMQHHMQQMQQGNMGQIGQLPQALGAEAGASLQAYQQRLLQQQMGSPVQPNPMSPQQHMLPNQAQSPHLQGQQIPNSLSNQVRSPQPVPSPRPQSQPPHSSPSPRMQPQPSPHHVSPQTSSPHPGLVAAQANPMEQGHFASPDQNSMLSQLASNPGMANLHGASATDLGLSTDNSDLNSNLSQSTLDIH
assay-overview: Inhibition of p300 (unknown origin) using biotinylated histone H3 (1 to 21 residues) as substrate measured after 90 mins in presence of Acetyl CoA by AlphaLISA assay

In [3]: df
Out[3]:
                                   compound   result
0  CC1=NN(c2ccc(C(=O)O)cc2)C(=O)C1CCC(=O)Nc1cc(C)c(C)cc1[N+](=O)[O-] (stereo not drawn)  > 10 µM
1  Cc1cc(-c2ccc(/C=C3/NC(=O)N(c4ccc(C(=O)O)cc4)C3=O)o2)c([N+](=O)[O-])cc1C  > 10 µM

Now turn to the next compound.
Request: Give IC50 (Histone acetyltransferase p300 (Homo sapiens)) of the following compound: `Cc1cc(C(=O)c2ccc3c(ccn3-c3ccc(C(=O)O)cc3)c2)c([N+](=O)[O-])cc1C`
Response: > 10 µM

Data provenance: ChEMBL document CHEMBL4359851
